target: PI3kδ (Homo sapiens, UniProt O00329); assay: Fluorescent (HTRF) determination of PI3 kinase enzyme activity, PI3Kδ; format: biochemical; conditions: 300 nM (Examples 1-59)
Sequence (O00329 whole entry): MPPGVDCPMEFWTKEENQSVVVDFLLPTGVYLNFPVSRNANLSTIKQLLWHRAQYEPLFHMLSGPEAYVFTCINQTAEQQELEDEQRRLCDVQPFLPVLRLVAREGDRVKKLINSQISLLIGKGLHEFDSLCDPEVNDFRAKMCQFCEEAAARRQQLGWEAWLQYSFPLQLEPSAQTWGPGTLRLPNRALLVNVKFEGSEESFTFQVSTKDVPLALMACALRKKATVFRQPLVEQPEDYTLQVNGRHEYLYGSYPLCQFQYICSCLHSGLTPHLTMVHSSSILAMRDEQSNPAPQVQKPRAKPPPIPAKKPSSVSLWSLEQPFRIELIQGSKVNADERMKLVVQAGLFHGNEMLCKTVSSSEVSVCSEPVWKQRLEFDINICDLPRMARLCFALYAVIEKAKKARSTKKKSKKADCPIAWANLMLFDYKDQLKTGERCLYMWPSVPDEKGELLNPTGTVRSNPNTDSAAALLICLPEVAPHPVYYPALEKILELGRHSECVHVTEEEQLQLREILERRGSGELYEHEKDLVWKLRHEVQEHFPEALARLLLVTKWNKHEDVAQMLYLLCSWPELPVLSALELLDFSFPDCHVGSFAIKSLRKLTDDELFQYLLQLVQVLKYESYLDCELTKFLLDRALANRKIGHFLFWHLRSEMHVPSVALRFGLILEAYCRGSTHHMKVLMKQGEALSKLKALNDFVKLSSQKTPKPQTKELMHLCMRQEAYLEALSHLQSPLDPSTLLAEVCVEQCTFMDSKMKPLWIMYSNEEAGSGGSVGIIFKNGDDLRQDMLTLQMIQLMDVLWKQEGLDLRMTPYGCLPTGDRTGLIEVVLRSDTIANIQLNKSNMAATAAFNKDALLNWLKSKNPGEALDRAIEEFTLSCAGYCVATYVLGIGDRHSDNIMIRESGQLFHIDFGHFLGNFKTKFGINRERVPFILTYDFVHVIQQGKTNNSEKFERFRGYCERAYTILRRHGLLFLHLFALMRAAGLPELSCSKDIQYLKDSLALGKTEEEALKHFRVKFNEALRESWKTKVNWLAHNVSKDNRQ
Sequence (P27986 whole entry partner): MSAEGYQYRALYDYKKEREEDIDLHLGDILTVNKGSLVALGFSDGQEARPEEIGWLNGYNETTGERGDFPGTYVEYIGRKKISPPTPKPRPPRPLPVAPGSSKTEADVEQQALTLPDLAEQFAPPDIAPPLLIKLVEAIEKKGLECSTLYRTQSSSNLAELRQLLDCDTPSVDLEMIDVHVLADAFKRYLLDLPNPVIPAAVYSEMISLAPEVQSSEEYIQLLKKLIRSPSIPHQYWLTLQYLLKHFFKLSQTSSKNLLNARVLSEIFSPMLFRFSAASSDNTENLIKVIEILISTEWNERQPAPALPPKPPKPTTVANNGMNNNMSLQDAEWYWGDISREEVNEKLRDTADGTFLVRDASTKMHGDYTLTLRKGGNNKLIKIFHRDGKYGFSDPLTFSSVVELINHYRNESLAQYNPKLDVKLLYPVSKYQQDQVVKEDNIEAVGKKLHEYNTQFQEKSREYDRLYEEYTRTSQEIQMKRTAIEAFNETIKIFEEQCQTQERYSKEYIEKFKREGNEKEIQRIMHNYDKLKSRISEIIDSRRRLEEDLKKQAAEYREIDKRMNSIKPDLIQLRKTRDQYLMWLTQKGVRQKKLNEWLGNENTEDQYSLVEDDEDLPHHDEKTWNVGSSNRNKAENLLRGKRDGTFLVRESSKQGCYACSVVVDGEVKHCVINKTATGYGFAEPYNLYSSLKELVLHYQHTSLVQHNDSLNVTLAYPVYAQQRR
What inhibition at 0.3 µM was measured for each of the following?

Below, each entry is followed by its recorded inhibition at 0.3 µM result.
- compound: "CC(C)Oc1ccc(-c2nn(C(C)c3oc4cccc(F)c4c(=O)c3-c3ccc(F)cc3)c3ncnc(N)c23)cc1F (stereo not shown) [Example 12]"
  inhibition at 0.3 µM: "25 to 50%"
- compound: "CC(C)Oc1ncc(-c2nn(C(C)c3oc4cccc(F)c4c(=O)c3-c3cccc(F)c3)c3ncnc(N)c23)cn1 (stereo not shown) [Example 58]"
  inhibition at 0.3 µM: "50 to 75%"

Give me inhibition at 0.3 µM for each of these compounds, listed below.
1. CC(C)NC(=O)c1ccc(-c2nn(C(C)c3oc4cccc(F)c4c(=O)c3-c3cccc(F)c3)c3ncnc(N)c23)cc1F (stereo not shown) [Example 53]
2. CC(C)Cc1ccc(-c2nn(C(C)c3oc4cccc(F)c4c(=O)c3-c3cccc(F)c3)c3ncnc(N)c23)cc1 (stereo not shown) [Example 49]
3. CSc1nn(C(C)c2oc3cccc(F)c3c(=O)c2-c2cccc(F)c2)c2ncnc(N)c12 (stereo not shown) [Example 41]
4. CC(c1oc2cccc(F)c2c(=O)c1-c1cccc(F)c1)n1nc(-c2cc3ccccc3o2)c2c(N)ncnc21 (stereo not shown) [Example 14]
5. CC(c1oc2cccc(F)c2c(=O)c1-c1cccc(F)c1)n1nc(-c2ccc(OC3COC3)c(F)c2)c2c(N)ncnc21 (stereo not shown) [Example 46]

Reply |
0 to 25%
50 to 75%
50 to 75%
75 to 100%
25 to 50%

====

What inhibition at 0.1 µM was measured for each of the following?
target: PI3kγ (Homo sapiens); experiment: Fluorescent (HTRF) determination of PI3 kinase enzyme activity, PI3Kγ; type: biochemical; settings: 100 nM (Examples 60-137)
Sequence (P48736 whole entry): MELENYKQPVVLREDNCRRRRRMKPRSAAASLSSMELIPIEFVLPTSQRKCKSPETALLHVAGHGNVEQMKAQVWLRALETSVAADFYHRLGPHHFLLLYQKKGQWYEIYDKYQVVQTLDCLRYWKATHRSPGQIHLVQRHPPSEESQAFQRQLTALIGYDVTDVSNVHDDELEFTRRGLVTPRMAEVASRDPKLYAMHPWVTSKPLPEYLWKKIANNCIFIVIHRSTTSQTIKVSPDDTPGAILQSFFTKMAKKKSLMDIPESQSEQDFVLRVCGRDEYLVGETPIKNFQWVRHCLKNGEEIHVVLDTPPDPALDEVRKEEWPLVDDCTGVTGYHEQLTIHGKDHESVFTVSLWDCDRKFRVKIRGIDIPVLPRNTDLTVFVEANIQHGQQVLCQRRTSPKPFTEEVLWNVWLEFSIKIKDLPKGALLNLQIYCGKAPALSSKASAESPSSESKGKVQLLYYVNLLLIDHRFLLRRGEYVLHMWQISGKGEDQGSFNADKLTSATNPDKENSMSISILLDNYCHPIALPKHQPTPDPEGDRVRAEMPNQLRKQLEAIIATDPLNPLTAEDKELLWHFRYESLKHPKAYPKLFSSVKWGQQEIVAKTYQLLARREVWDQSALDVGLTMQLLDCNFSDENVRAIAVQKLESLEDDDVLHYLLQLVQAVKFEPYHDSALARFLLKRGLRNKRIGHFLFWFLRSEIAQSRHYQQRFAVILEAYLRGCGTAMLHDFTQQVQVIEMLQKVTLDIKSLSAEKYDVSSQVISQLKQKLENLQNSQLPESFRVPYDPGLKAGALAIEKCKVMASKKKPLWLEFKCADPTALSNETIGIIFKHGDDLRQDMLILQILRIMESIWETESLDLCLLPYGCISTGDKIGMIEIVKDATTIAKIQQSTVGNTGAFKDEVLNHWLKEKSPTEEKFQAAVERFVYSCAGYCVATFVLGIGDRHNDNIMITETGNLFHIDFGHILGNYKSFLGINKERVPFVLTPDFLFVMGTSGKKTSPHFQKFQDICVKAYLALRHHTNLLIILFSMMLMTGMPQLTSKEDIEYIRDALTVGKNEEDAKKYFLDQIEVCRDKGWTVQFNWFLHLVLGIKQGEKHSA

- compound: "CC(C)Oc1ccc(-c2nn(C(C)c3oc4cccc(F)c4c(=O)c3-c3cccc(F)c3)c3ncnc(N(C)C)c23)cc1F (centres unmarked) [Example 83]"
  dataValue: "75 to 100%"
- compound: "CC(C)C(=O)Nc1ccc(-c2nn(C(C)c3oc4cccc(F)c4c(=O)c3-c3ccc(F)cc3)c3ncnc(N4CCOCC4)c23)cc1F (centres unmarked) [Example 86]"
  dataValue: "25 to 50%"
- compound: "CC(C)Oc1ccc(-c2nn(C(C)c3oc4cccc(N5CCOCC5)c4c(=O)c3-c3cccc(F)c3)c3ncnc(N)c23)cc1F (centres unmarked) [Example 120]"
  dataValue: "0 to 25%"
- compound: "CC(c1oc2cccc(F)c2c(=O)c1-c1cccc(F)c1)n1nc(C#CCO)c2c(N)ncnc21 (centres unmarked) [Example 66]"
  dataValue: "25 to 50%"
- compound: "CC(c1oc2cccc(F)c2c(=O)c1-c1ccc(F)cc1)n1cnc2c(N)nc(F)nc21 (centres unmarked) [Example 107]"
  dataValue: "25 to 50%"
- compound: "CC(=O)Nc1ccc(-c2nn(C(C)c3oc4cccc(F)c4c(=O)c3-c3cccc(F)c3)c3ncnc(N)c23)cc1F (centres unmarked) [Example 82]"
  dataValue: "25 to 50%"

Give me inhibition at 0.1 µM for each of these compounds, listed below.
1. CC(c1oc2cccc(F)c2c(=O)c1-c1ccc(F)cc1)n1nc(-c2ccc(OC(F)F)c(F)c2)c2c(N)ncnc21 (racemic) [Example 96]
2. CNc1ncnc2c1c(-c1ccc(N3CCOCC3)c(F)c1)nn2C(C)c1oc2cccc(F)c2c(=O)c1-c1cccc(F)c1 (centres unmarked) [Example 99]
3. CC(=O)c1ccc(-c2nn(C(C)c3oc4cccc(F)c4c(=O)c3-c3cccc(F)c3)c3ncnc(N)c23)cc1F (centres unmarked) [Example 124]
4. CC(c1oc2cccc(F)c2c(=O)c1-c1ccc(F)cc1)n1cnc2c(N3CCOCC3)ncnc21 (centres unmarked) [Example 108]
5. COCc1ccc(-c2nn(C(C)c3oc4cccc(F)c4c(=O)c3-c3cccc(F)c3)c3ncnc(N)c23)cc1 (centres unmarked) [Example 72]
6. CC(C)Oc1ccc(-c2nn(C(C)c3oc4cccc(F)c4c(=O)c3-c3ccccc3)c3ncnc(N)c23)cc1F (racemic) [Example 100]
7. CC(c1oc2cccc(F)c2c(=O)c1-c1cccc(F)c1)n1cnc2c(N(C)C)ncnc21 (single isomer, unassigned) [Example 130]

Reply |
1. 0 to 25%
2. 25 to 50%
3. 0 to 25%
4. 25 to 50%
5. 25 to 50%
6. 50 to 75%
7. 25 to 50%

Ask | State its inhibition at 0.1 µM: CC(c1oc2cccc(F)c2c(=O)c1-c1cn[nH]c1)n1nc(-c2ccc(OC(F)F)c(F)c2)c2c(N)ncnc21 (centres unmarked) [Example 91]
Reply | 25 to 50%

====

biological target: UniProt:P42336; assay: Fluorescent (HTRF) determination of PI3 kinase enzyme activity, PI3Kα; assay type: biochemical; settings: 1 uM
Sequence (P42336 whole entry): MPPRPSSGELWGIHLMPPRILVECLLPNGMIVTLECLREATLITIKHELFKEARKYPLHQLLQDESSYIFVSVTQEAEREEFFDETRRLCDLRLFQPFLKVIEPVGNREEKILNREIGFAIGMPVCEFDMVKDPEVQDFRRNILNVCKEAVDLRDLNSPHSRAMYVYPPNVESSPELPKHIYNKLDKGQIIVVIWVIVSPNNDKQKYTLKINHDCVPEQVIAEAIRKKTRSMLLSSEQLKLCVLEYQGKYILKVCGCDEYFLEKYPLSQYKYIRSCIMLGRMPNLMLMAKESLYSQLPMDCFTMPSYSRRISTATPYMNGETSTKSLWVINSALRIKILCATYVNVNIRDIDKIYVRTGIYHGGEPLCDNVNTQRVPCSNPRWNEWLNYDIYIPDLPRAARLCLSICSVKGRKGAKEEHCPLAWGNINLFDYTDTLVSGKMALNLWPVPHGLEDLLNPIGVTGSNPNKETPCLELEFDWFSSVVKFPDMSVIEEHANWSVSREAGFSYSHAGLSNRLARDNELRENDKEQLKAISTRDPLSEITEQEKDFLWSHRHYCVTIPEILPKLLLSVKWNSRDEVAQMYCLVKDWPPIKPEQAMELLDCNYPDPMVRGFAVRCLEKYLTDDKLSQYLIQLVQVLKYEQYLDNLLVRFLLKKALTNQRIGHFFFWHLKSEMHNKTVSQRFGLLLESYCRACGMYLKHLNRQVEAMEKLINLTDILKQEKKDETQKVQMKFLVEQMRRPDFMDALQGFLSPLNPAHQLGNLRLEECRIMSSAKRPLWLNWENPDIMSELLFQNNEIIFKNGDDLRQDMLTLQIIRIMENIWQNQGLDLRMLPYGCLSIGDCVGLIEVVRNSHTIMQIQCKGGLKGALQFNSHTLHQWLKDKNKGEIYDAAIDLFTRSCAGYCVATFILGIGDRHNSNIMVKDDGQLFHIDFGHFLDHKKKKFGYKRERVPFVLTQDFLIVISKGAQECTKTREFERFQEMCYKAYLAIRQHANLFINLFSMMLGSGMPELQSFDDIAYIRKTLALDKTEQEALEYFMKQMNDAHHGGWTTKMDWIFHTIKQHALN
Sequence (P27986 whole entry partner): as the sequence (P27986 whole entry partner) above
What inhibition at 1 µM was measured for each of the following?

- molecule: "CC(c1oc2cccc(F)c2c(=O)c1-c1cccc(F)c1)n1nc(-c2ccc(OC3CN(C(c4ccccc4)c4ccccc4)C3)c(F)c2)c2c(N)ncnc21 (centres unmarked) [Example 44]"
  inhibition at 1 µM: "0 to 25%"
- molecule: "Cc1nn(C(C)c2oc3cccc(F)c3c(=O)c2-c2cccc(F)c2)c2ncnc(N)c12 (centres unmarked) [Example 33]"
  inhibition at 1 µM: "0 to 25%"
- molecule: "CC(c1oc2cccc(F)c2c(=O)c1-c1cccc(F)c1)n1nc(-c2ccc(CNC(=O)OC(C)(C)C)o2)c2c(N)ncnc21 (centres unmarked) [Example 74]"
  inhibition at 1 µM: "0 to 25%"
- molecule: "CC(C)Oc1ccc(-c2nn(C(C)c3oc4cccc(N5CCOCC5)c4c(=O)c3-c3ccccc3)c3ncnc(N)c23)cc1F (centres unmarked) [Example 121]"
  inhibition at 1 µM: "25 to 50%"
- molecule: "CC(C)C(=O)Nc1ccc(-c2nn(C(C)c3oc4cccc(F)c4c(=O)c3-c3ccc(F)cc3)c3ncnc(N4CCOCC4)c23)cc1F (centres unmarked) [Example 86]"
  inhibition at 1 µM: "0 to 25%"

Give me inhibition at 1 µM for each of these molecules, listed below.
1. CC(=O)Nc1ccc(-c2nn(C(C)c3oc4cccc(F)c4c(=O)c3-c3cccc(F)c3)c3ncnc(N)c23)cc1F (centres unmarked) [Example 82]
2. COc1cccc2oc(Cn3nc(-c4ccc(OC(C)C)c(F)c4)c4c(N)ncnc43)c(-c3cccc(F)c3)c(=O)c12 [Example 2]
3. COC(=O)c1cc(-c2nn(C(C)c3oc4cccc(F)c4c(=O)c3-c3cccc(F)c3)c3ncnc(N)c23)cs1 (centres unmarked) [Example 61]
4. CC(C)Oc1ccc(-c2nn(C(C)c3oc4cccc(F)c4c(=O)c3-c3cccc(F)c3)c3ncnc(N)c23)cc1F (centres unmarked) [Example 6]
5. CC(c1oc2cccc(F)c2c(=O)c1-c1cccc(F)c1)n1nc(-c2ccc(-c3nnc(N)s3)cc2)c2c(N)ncnc21 (centres unmarked) [Example 77]
6. CNc1nnc(-c2ccc(-c3nn(C(C)c4oc5cccc(F)c5c(=O)c4-c4cccc(F)c4)c4ncnc(N)c34)cc2)s1 (centres unmarked) [Example 54]
7. CC(c1oc2cccc(F)c2c(=O)c1-c1cccc(F)c1)n1nc(-c2ccc(N3CCOCC3)c(Cl)c2)c2c(N)ncnc21 (single isomer, unassigned) [Example 127]
8. CC(C)Cc1ccc(-c2nn(C(C)c3oc4cccc(F)c4c(=O)c3-c3cccc(F)c3)c3ncnc(N)c23)cc1 (centres unmarked) [Example 49]

Reply |
1: 25 to 50%; 2: 0 to 25%; 3: 25 to 50%; 4: 0 to 25%; 5: 25 to 50%; 6: 25 to 50%; 7: 0 to 25%; 8: 50 to 75%

Ask | Report value: inhibition at 1 µM, system: UniProt:P42336, molecule: Cc1c2ccc(-c3nn(C(C)c4oc5cccc(F)c5c(=O)c4-c4cccc(F)c4)c4ncnc(N)c34)cc2nn1C (centres unmarked) [Example 80]
Reply | 50 to 75%

====

target: UniProtKB P42338; test: Fluorescent (HTRF) determination of PI3 kinase enzyme activity, PI3Kβ; format: biochemical; settings: 1 uM
Sequence (P42338 whole entry, one chain of several): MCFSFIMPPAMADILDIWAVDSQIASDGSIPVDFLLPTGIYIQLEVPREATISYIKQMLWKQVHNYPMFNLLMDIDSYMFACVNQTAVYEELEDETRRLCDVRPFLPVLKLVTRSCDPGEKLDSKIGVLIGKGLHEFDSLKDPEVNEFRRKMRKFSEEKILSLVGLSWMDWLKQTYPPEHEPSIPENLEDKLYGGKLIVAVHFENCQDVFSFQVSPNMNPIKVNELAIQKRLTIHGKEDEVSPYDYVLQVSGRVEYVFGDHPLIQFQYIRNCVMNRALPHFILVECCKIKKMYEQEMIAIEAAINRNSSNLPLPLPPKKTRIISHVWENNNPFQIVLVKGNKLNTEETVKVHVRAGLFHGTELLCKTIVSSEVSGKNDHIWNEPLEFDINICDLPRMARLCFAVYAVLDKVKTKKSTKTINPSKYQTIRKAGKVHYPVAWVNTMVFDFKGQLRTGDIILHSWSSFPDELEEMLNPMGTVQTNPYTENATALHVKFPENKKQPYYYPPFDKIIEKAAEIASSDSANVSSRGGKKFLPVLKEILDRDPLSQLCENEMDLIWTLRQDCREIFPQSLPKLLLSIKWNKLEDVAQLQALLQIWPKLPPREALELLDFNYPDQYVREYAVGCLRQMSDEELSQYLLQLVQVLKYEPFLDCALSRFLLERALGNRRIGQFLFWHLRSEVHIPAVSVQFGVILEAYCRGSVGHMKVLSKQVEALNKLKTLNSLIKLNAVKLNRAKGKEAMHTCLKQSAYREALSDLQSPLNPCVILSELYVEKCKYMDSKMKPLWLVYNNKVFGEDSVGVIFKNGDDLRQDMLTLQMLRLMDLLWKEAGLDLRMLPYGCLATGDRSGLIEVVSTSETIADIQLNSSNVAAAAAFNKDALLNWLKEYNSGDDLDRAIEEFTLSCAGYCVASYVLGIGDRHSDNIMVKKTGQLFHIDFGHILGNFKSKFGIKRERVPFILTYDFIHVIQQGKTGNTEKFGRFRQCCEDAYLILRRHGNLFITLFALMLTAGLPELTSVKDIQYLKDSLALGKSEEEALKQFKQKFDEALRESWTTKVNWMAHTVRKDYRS
measuredParameter: % inhibition (PI3kβ) 1 uM

Below, each entry is followed by its recorded % inhibition (PI3kβ) 1 uM result.
- compound: "CC(c1oc2cccc(F)c2c(=O)c1-c1cccc(F)c1)n1cnc2c(N(C)C)ncnc21 (racemic) [Example 129]"
  % inhibition (PI3kβ) 1 uM: "C (C=>25 to 50%)"
- compound: "CC(c1oc2cccc(F)c2c(=O)c1-c1ccccc1)n1nc(-c2ccc(OC(F)F)c(F)c2)c2c(N)ncnc21 (stereo not shown) [Example 32]"
  % inhibition (PI3kβ) 1 uM: "B (B=>50 to 75%)"
- compound: "CC(C)Oc1ccc(-c2nn(C(C)c3oc4cccc(F)c4c(=O)c3-c3ccccc3)c3ncnc(N)c23)cc1F (racemic) [Example 100]"
  % inhibition (PI3kβ) 1 uM: "B (B=>50 to 75%)"
- compound: "CC(Nc1ncnc2[nH]cnc12)c1oc2cccc(F)c2c(=O)c1-c1cccc(F)c1 (stereo not shown) [Example 69]"
  % inhibition (PI3kβ) 1 uM: "C (C=>25 to 50%)"
- compound: "CC(Nc1ncnc2[nH]cnc12)c1oc2cccc(F)c2c(=O)c1-c1cccc(F)c1 (single isomer, unassigned; (+)) [Example 68]"
  % inhibition (PI3kβ) 1 uM: "B (B=>50 to 75%)"
- compound: "CC(c1oc2cccc(F)c2c(=O)c1-c1cccc(F)c1)n1nc(-c2ccc(N3CCOCC3)c(F)c2)c2c(N)ncnc21 (racemic) [Example 70]"
  % inhibition (PI3kβ) 1 uM: "C (C=>25 to 50%)"

Ask | State its % inhibition (PI3kβ) 1 uM: Cc1cc(-c2nn(C(C)c3oc4cccc(F)c4c(=O)c3-c3cccc(F)c3)c3ncnc(N)c23)ccc1OC(C)C (stereo not shown) [Example 50]
Reply | C (C=>25 to 50%)
